Where do the numbers come from? From FireProtDB (doi:10.1126/science.aai7825).

Answer each item with its documented Tm.
Conditions: Escherichia coli (strain K12); pH 7.5; Thermal; Intensity; HEPES 20mM; transition: 2; whole UniProt chain shown
Give bare numbers, in °C.

Phenylalanine--tRNA ligase alpha subunit wild type, P08312 (protein) MSHLAELVASAKAAISQASDVAALDNVRVEYLGKKGHLTLQMTTLRELPPEERPAAGAVINEAKEQVQQALNARKAELESAALNARLAAETIDVSLPGRRIENGGLHPVTRTIDRIESFFGELGFTVATGPEIEDDYHNFDALNIPGHHPARADHDTFWFDTTRLLRTQTSGVQIRTMKAQQPPIRIIAPGRVYRNDYDQTHTPMFHQMEGLIVDTNISFTNLKGTLHDFLRNFFEEDLQIRFRPSYFPFTEPSAEVDVMGKNGKWLEVLGCGMVHPNVLRNVGIDPEVYSGFAFGMGMERLTMLRYGVTDLRSFFENDLRFLKQFK    43.3
Homoserine O-succinyltransferase wild type, P07623 (protein) MPIRVPDELPAVNFLREENVFVMTTSRASGQEIRPLKVLILNLMPKKIETENQFLRLLSNSPLQVDIQLLRIDSRESRNTPAEHLNNFYCNFEDIQDQNFDGLIVTGAPLGLVEFNDVAYWPQIKQVLEWSKDHVTSTLFVCWAVQAALNILYGIPKQTRTEKLSGVYEHHILHPHALLTRGFDDSFLAPHSRYADFPAALIRDYTDLEILAETEEGDAYLFASKDKRIAFVTGHPEYDAQTLAQEFFRDVEAGLDPDVPYNYFPHNDPQNTPRASWRSHGNLLFTNWLNYYVYQITPYDLRHMNPTLD    45.7
Exodeoxyribonuclease III wild type, P09030 (protein) MKFVSFNINGLRARPHQLEAIVEKHQPDVIGLQETKVHDDMFPLEEVAKLGYNVFYHGQKGHYGVALLTKETPIAVRRGFPGDDEEAQRRIIMAEIPSLLGNVTVINGYFPQGESRDHPIKFPAKAQFYQNLQNYLETELKRDNPVLIMGDMNISPTDLDIGIGEENRKRWLRTGKCSFLPEEREWMDRLMSWGLVDTFRHANPQTADRFSWFDYRSKGFDDNRGLRIDLLLASQPLAECCVETGIDYEIRSMEKPSDHAPVWATFRR    42.6
UDP-glucose 4-epimerase wild type, P09147 (protein) MRVLVTGGSGYIGSHTCVQLLQNGHDVIILDNLCNSKRSVLPVIERLGGKHPTFVEGDIRNEALMTEILHDHAIDTVIHFAGLKAVGESVQKPLEYYDNNVNGTLRLISAMRAANVKNFIFSSSATVYGDQPKIPYVESFPTGTPQSPYGKSKLMVEQILTDLQKAQPDWSIALLRYFNPVGAHPSGDMGEDPQGIPNNLMPYIAQVAVGRRDSLAIFGNDYPTEDGTGVRDYIHVMDLADGHVVAMEKLANKPGVHIYNLGAGVGNSVLDVVNAFSKACGKPVNYHFAPRREGDLPAYWADASKADRELNWRVTRTLDEMAQDTWHWQSRHPQGYPD    45
Transcriptional repressor MprA wild type, P0ACR9 (protein) MDSSFTPIEQMLKFRASRHEDFPYQEILLTRLCMHMQSKLLENRNKMLKAQGINETLFMALITLESQENHSIQPSELSCALGSSRTNATRIADELEKRGWIERRESDNDRRCLHLQLTEKGHEFLREVLPPQHNCLHQLWSALSTTEKDQLEQITRKLLSRLDQMEQDGVVLEAMS    45.9
Enoyl-[acyl-carrier-protein] reductase [NADH] FabI wild type, P0AEK4 (protein) MGFLSGKRILVTGVASKLSIAYGIAQAMHREGAELAFTYQNDKLKGRVEEFAAQLGSDIVLQCDVAEDASIDTMFAELGKVWPKFDGFVHSIGFAPGDQLDGDYVNAVTREGFKIAHDISSYSFVAMAKACRSMLNPGSALLTLSYLGAERAIPNYNVMGLAKASLEANVRYMANAMGPEGVRVNAISAGPIRTLAASGIKDFRKMLAHCEAVTPIRRTVTIEDVGNSAAFLCSDLSAGISGEVVHVDGGFSIAAMNELELK    45.3
dTDP-glucose 4,6-dehydratase 2 wild type, P27830 (protein) MRKILITGGAGFIGSALVRYIINETSDAVVVVDKLTYAGNLMSLAPVAQSERFAFEKVDICDRAELARVFTEHQPDCVMHLAAESHVDRSIDGPAAFIETNIVGTYTLLEAARAYWNALTEDKKSAFRFHHISTDEVYGDLHSTDDFFTETTPYAPSSPYSASKASSDHLVRAWLRTYGLPTLITNCSNNYGPYHFPEKLIPLMILNALAGKSLPVYGNGQQIRDWLYVEDHARALYCVATTGKVGETYNIGGHNERKNLDVVETICELLEELAPNKPHGVAHYRDLITFVADRPGHDLRYAIDASKIARELGWLPQETFESGMRKTVQWYLANESWWKQVQDGSYQGERLGLKG    42.3

Here is another protein to look at.
// Tm lookup, protein = Outer membrane porin C wild type, P06996 (protein) MKVKVLSLLVPALLVAGAANAAEVYNKDGNKLDLYGKVDGLHYFSDNKDVDGDQTYMRLGFKGETQVTDQLTGYGQWEYQIQGNSAENENNSWTRVAFAGLKFQDVGSFDYGRNYGVVYDVTSWTDVLPEFGGDTYGSDNFMQQRGNGFATYRNTDFFGLVDGLNFAVQYQGKNGNPSGEGFTSGVTNNGRDALRQNGDGVGGSITYDYEGFGIGGAISSSKRTDAQNTAAYIGNGDRAETYTGGLKYDANNIYLAAQYTQTYNATRVGSLGWANKAQNFEAVAQYQFDFGLRPSLAYLQSKGKNLGRGYDDEDILKYVDVGATYYFNKNMSTYVDYKINLLDDNQFTRDAGINTDNIVALGLVYQF , result: 43.5
